target: Muscarinic acetylcholine receptors; M2 & M3 (Homo sapiens) (UniProt P20309+P08172); assay: Selectivity ratio of IC50 for human muscarinic M2 receptor to IC50 for human muscarinic M3 receptor
Sequence (P20309 whole entry): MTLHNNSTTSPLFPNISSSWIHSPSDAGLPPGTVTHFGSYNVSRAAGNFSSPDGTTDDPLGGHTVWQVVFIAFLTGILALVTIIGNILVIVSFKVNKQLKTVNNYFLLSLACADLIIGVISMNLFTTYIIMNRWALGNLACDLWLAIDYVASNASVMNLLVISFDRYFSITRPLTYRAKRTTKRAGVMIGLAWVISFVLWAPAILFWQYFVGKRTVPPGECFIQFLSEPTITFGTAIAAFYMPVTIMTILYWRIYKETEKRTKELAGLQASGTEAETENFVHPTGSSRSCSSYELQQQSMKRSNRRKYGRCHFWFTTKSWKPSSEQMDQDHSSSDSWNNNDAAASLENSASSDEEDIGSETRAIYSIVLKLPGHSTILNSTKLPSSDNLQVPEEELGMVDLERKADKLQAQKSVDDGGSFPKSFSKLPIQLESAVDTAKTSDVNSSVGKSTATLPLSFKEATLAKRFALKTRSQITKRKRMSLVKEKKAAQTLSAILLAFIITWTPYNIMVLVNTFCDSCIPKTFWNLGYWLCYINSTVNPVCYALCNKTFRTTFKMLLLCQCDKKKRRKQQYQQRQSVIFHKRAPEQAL
readout type: Ratio IC50

These recorded examples may help you get a feel for the data.
[
  {
    "compound": "O=C(O[C@H]1C[N+]2(CCOc3ccccc3)CCC1CC2)N(Cc1ccsc1)c1ccccc1.[Br-]",
    "system tested": "Muscarinic acetylcholine receptors; M2 & M3 (Homo sapiens) (UniProt P20309+P08172)",
    "Ratio IC50": 8
  },
  {
    "compound": "C[N+]12CCC(CC1)[C@@H](OC(=O)N(Cc1cccs1)c1ccccc1)C2",
    "system tested": "Muscarinic acetylcholine receptors; M2 & M3 (Homo sapiens) (UniProt P20309+P08172)",
    "Ratio IC50": 1.8
  },
  {
    "compound": "O=C(O[C@H]1CN2CCC1CC2)N(CCc1ccccc1)c1ccccc1",
    "system tested": "Muscarinic acetylcholine receptors; M2 & M3 (Homo sapiens) (UniProt P20309+P08172)",
    "Ratio IC50": 11.7
  },
  {
    "compound": "O=C(O[C@H]1C[N+]2(CCCc3cccs3)CCC1CC2)N(Cc1cccs1)c1ccccc1.[Br-]",
    "system tested": "Muscarinic acetylcholine receptors; M2 & M3 (Homo sapiens) (UniProt P20309+P08172)",
    "Ratio IC50": 6.4
  },
  {
    "compound": "CCCCCN(C(=O)O[C@H]1CN2CCC1CC2)c1ccccc1",
    "system tested": "Muscarinic acetylcholine receptors; M2 & M3 (Homo sapiens) (UniProt P20309+P08172)",
    "Ratio IC50": 8
  },
  {
    "compound": "CCCCN(C(=O)O[C@H]1C[N+]2(CCCc3ccccc3)CCC1CC2)c1ccccc1",
    "system tested": "Muscarinic acetylcholine receptors; M2 & M3 (Homo sapiens) (UniProt P20309+P08172)",
    "Ratio IC50": 22.1
  },
  {
    "compound": "CCCCN(C(=O)O[C@H]1CN2CCC1CC2)c1ccccc1",
    "system tested": "Muscarinic acetylcholine receptors; M2 & M3 (Homo sapiens) (UniProt P20309+P08172)",
    "Ratio IC50": 5.3
  },
  {
    "compound": "O=C(O[C@H]1C[N+]2(CCCc3cccs3)CCC1CC2)N(Cc1ccsc1)c1ccccc1.[Br-]",
    "system tested": "Muscarinic acetylcholine receptors; M2 & M3 (Homo sapiens) (UniProt P20309+P08172)",
    "Ratio IC50": 14
  },
  {
    "compound": "Cc1cccc(N(Cc2cc(F)c(F)cc2F)C(=O)O[C@H]2C[N+]3(CCOc4ccccc4)CCC2CC3)c1.[Br-]",
    "system tested": "Muscarinic acetylcholine receptors; M2 & M3 (Homo sapiens) (UniProt P20309+P08172)",
    "Ratio IC50": 23.3
  },
  {
    "compound": "O=C(O[C@H]1CN2CCC1CC2)N(Cc1cc(F)c(F)c(F)c1)c1cccc(F)c1 [TARAFENACIN]",
    "system tested": "Muscarinic acetylcholine receptors; M2 & M3 (Homo sapiens) (UniProt P20309+P08172)",
    "Ratio IC50": 64.9
  }
]

Please fill in: Ratio IC50 reported for O=C(O[C@H]1CN2CCC1CC2)N(Cc1ccccc1)c1ccc(F)cc1 = 7.7

Please fill in: Ratio IC50 reported for CCCN(C(=O)O[C@H]1CN2CCC1CC2)c1ccccc1 = 4.9

====

Molecular target: UniProt:P08172
Sequence (P08172 whole entry): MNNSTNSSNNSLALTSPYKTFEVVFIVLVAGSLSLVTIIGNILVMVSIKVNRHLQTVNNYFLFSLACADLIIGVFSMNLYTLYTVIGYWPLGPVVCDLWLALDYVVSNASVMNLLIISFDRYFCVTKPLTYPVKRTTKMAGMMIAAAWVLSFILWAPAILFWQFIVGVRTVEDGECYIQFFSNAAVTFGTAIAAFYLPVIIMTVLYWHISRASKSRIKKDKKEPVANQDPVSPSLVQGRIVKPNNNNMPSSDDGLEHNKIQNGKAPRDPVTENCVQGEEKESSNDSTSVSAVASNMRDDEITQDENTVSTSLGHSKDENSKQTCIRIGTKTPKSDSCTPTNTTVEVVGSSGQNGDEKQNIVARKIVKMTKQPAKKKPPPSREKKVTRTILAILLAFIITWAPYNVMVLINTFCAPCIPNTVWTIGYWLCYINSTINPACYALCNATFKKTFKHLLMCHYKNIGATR
Test: Displacement of [3H]NMS from human muscarinic M2 receptor expressed in CHO-K1 cells after 1 hr by scintillation counting
Examples of compounds with documented log10 of IC50 follow.
The figures below represent log10 of IC50, where IC50 is stated in nM.

These recorded examples may help you get a feel for the data.
[
  {
    "substance smiles": "O=C(O[C@H]1C[N+]2(CCOc3ccccc3)CCC1CC2)N(Cc1cccs1)c1ccccc1.[Br-]",
    "log10 of IC50": 0.04
  },
  {
    "substance smiles": "Cc1cccc(N(Cc2cc(F)c(F)cc2F)C(=O)O[C@H]2C[N+]3(CCCc4ccccc4)CCC2CC3)c1.[Br-]",
    "log10 of IC50": 1.47
  },
  {
    "substance smiles": "O=C(O[C@H]1CN2CCC1CC2)N(c1ccccc1)c1ccccc1",
    "log10 of IC50": 3.44
  },
  {
    "substance smiles": "CCCCN(Cc1cccs1)C(=O)O[C@H]1CN2CCC1CC2",
    "log10 of IC50": 1.88
  },
  {
    "substance smiles": "CCCCN(C(=O)O[C@H]1C[N+]2(CCc3ccccc3)CCC1CC2)c1ccccc1",
    "log10 of IC50": 2.08
  }
]

Please fill in: log10 of IC50 reported for Cc1cccc(N(Cc2cc(F)c(F)cc2F)C(=O)O[C@H]2CN3CCC2CC3)c1 = 1.66

Please fill in: log10 of IC50 reported for CCCN(C(=O)O[C@H]1CN2CCC1CC2)c1ccccc1 = 2.54

Please fill in: log10 of IC50 reported for Cc1cccc(N(Cc2cc(F)c(F)cc2F)C(=O)O[C@H]2C[N+]3(CCOc4ccccc4)CCC2CC3)c1.[Br-] = 1.45

Please fill in: log10 of IC50 reported for CCCCN(C(=O)O[C@H]1C[N+]2(CCCc3cccs3)CCC1CC2)c1ccccc1.[Br-] = 1.04

Please fill in: log10 of IC50 reported for O=C(Nc1ccccc1-c1ccccc1)OC12CCN(CC1)CC2 = 1.16

====

molecular target: UniProt P20309; test: Displacement of [3H]NMS from human muscarinic M3 receptor expressed in CHO-K1 cells after 1 hr by scintillation counting; type: cell-based
Threshold-based label: IC50 under 0.9 nM gives 1, IC50 not under 0.9 nM gives 0.

Sample answers from the record:
[
  {
    "compound": "O=C(O[C@H]1C[N+]2(CCOc3ccccc3)CCC1CC2)N(Cc1cccs1)c1ccccc1.[Br-]",
    "qualitative label": 1
  },
  {
    "compound": "O=C(O[C@H]1C[N+]2(CCOc3ccccc3)CCC1CC2)N(Cc1ccccc1)c1ccccc1.[Br-]",
    "qualitative label": 0
  },
  {
    "compound": "O=C(O[C@H]1CN2CCC1CC2)N(Cc1ccccc1)c1ccc(F)cc1",
    "qualitative label": 0
  }
]

Please let me know if O=C(O[C@H]1CN2CCC1CC2)N(Cc1ccccc1)Cc1cccs1 shows IC50 below 0.9 nM. 0

Please let me know if O=C(O[C@H]1CN2CCC1CC2)N(c1ccccc1)c1ccccc1 shows IC50 below 0.9 nM. 0

====

Biological target: Muscarinic acetylcholine receptor M1 (Homo sapiens, UniProt P11229)
Sequence (P11229 whole entry): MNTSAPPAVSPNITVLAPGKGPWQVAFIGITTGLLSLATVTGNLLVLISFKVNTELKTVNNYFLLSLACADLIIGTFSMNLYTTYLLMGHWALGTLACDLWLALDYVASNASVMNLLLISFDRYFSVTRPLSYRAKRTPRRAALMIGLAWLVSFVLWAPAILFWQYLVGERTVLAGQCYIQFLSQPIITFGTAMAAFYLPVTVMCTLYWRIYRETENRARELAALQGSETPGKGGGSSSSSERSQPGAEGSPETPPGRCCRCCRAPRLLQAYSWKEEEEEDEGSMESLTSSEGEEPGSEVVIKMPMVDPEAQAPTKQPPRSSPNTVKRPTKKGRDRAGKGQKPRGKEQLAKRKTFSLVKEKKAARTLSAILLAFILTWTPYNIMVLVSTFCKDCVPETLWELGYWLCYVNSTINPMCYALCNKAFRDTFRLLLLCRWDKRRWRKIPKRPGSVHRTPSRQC
Assay: Displacement of [3H]NMS from human muscarinic M1 receptor expressed in CHO-K1 cells after 1 hr by scintillation counting
readout type: pIC50
Give only the number. pIC50 is defined as minus log10 of concentration in molar units.

[
  {
    "substance smiles": "O=C(O[C@H]1CN2CCC1CC2)N(Cc1cccc(F)c1)c1cccc(F)c1",
    "pIC50": 8.82
  },
  {
    "substance smiles": "CCCCN(C(=O)O[C@H]1C[N+]2(CCCc3ccccc3)CCC1CC2)c1ccccc1",
    "pIC50": 8.60
  },
  {
    "substance smiles": "Cc1cccc(N(Cc2cc(F)c(F)cc2F)C(=O)O[C@H]2C[N+]3(CCCc4ccccc4)CCC2CC3)c1.[Br-]",
    "pIC50": 8.52
  },
  {
    "substance smiles": "O=C(O[C@H]1C[N+]2(CCCc3cccs3)CCC1CC2)N(Cc1ccsc1)c1ccccc1.[Br-]",
    "pIC50": 8.70
  },
  {
    "substance smiles": "CCCCN(C(=O)O[C@H]1C[N+]2(CCOc3ccccc3)CCC1CC2)c1ccccc1.[Br-]",
    "pIC50": 8.85
  }
]

Please fill in: pIC50 reported for CCCCN(C(=O)O[C@H]1C[N+]2(CCCc3cccs3)CCC1CC2)c1ccccc1.[Br-] = 8.70
